Recorded values, source a melting point compilation (Tetko et al.; mined from patent text by program, amines drawn as free bases though some values may be those of a salt).

Parameter melting point: see the listing below.

molecule | test.result
COCOc1ccc(-c2ccc(-c3ccc(C(=O)O)cc3)cc2-c2ccc3c(c2)C(C)(C)CCC3(C)C)cc1 | 249 to 251 °C

Q) For O=C(Nc1ccccc1)Nc1cccc(-c2ccc(CC34CCCN3C(=O)N(c3cc(Cl)cc(Cl)c3)C4=O)cc2)c1 (centres undefined) , what is its reported melting point?
A) 150 °C

Q) For Cc1nc2ccccc2n1-c1ccc(C#N)cc1 , what is its reported melting point?
A) 166 to 168 °C

Q) For Cc1ccc(-c2c(C#N)cnc3ccccc23)cc1 , what is its reported melting point?
A) 96 to 97 °C
